Hi there, I'd appreciate the recorded viability, T/C for every entry that follows.
# Test system: SW1271 complex spheroids with HUVEC/MSC, growth, % test/control
# Procedure Details: Anticancer human tumor SW1271 cell line growth inhibition [AhR];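 further: spheroids exposed to agents for 7 days before readout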
# Conditions: second compound 10 µM; first compound 0.0316 µM; hits give low values
Response body: numeric value in %, unit text excluded.

// returns reported viability, T/C for input CC1COCCN1c1cc(C2(S(C)(=N)=O)CC2)nc(-c2ccnc3[nH]ccc23)n1 (stereo not drawn) + Cc1cncc(-c2nc(NCCc3c[nH]c4ccccc34)c3ncn(C(C)C)c3n2)c1 51.6

What value of viability, T/C has been recorded for this entry: NS(=O)(=O)OCC1CC(n2ccc3c(NC4CCc5ccccc54)ncnc32)CC1O (stereo not drawn) + Cc1ccccc1N=Nc1ccc(NC(=O)c2ccnn2C)c(C)c1 128

Which viability, T/C is reported for this compound? CC1COCCN1c1cc(-c2ccnn2C)c2ccnc(-c3ccn[nH]3)c2n1 (stereo not drawn) + Cc1cncc(-c2nc(NCCc3c[nH]c4ccccc34)c3ncn(C(C)C)c3n2)c1 36.9

Entry source: PubChem BioAssay AID1919017
